Would you kindly list protein stability index for each of these variants?
B1: ACSBG2 (parent)
chain: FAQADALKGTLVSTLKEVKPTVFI

# Variants of: B1
# experiment-summary: protein stability index of a GFP-peptide fusion (GPS, HEK-293T) (PSI 1-6); higher = more stable;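 note: lentivirally expressed fusions sorted by FACS into six bins by GFP to DsRed ratio, PSI derived from sequencing read proportions per bin multiplied by bin number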
# experimental-parameters: c terminus: a fixed tail appended
One number for each entry.

Solved entries (count: 10):
mutant-id	protein stability index
A6P	1.69
L15T	1.97
V22A	2.73
V18D	1.68
F1D	2.43
S13F	2.53
A2D	2.11
K8Y	3
V12L	1.25
A2E	2.05

Quick batch: protein stability index for everything below.
1. L15G
2. T21W
3. E17I
4. T14E
5. V18K
6. K8G
7. V12C

1. 1.4
2. 3.06
3. 1.86
4. 1.26
5. 1.92
6. 2.31
7. 1.76

Quick batch: protein stability index for everything below.
1. T21D
2. L15A
3. A2K

1: 1.82; 2: 2.51; 3: 2.49

Quick batch: protein stability index for everything below.
1. D5H
2. T14M

1. 1.3
2. 1.32
